- TARGET DESC: T1, full-length human Regnase-1 with a FLAG tag on the N-terminal side and a biotin ligase BirA recognition … (human, UniProt Q5D1E8 1-599, biotinylated at the BirA recognition sequence when required)
- T1 sequence: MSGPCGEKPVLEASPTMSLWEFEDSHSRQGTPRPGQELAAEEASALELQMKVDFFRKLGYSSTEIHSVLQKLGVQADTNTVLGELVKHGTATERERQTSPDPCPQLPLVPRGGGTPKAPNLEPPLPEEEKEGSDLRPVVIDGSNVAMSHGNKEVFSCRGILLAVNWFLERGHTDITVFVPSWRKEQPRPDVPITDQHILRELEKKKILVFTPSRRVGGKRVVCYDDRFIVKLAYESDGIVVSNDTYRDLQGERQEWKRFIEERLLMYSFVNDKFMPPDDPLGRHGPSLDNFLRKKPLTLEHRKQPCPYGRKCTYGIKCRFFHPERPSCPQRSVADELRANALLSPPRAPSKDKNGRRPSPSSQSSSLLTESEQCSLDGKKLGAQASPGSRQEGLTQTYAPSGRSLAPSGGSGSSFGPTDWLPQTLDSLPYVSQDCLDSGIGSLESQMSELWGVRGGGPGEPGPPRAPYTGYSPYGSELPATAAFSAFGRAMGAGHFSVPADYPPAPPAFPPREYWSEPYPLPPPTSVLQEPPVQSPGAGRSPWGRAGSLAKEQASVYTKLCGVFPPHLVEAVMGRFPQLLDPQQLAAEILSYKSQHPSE
- PROTOCOL SUMMARY: cell-based or functional assay
PARAMETER: 50% inhibition concentration, Regnase-1 phosphorylation by IKKβ (AlphaScreen) (µM)
Expressed in µM, but write only the number.

Measured 50% inhibition concentration, Regnase-1 phosphorylation by IKKβ (AlphaScreen) of XRFGVWSWIYPD (HELM PEPTIDE1{[meA].R.F.G.V.W.S.W.I.Y.P.D.[C1CCN([*:1])C1]}$PEPTIDE1,PEPTIDE1,1:R1-12:R3$$$V2.0; SMILES CC[C@H](C)[C@@H]1NC(=O)[C@H](Cc2c[nH]c3ccccc23)NC(=O)[C@H](CO)NC(=O)[C@H](Cc2c[nH]c3ccccc23)NC(=O)[C@H](C(C)C)NC(=O)CNC(=O)[C@H](Cc2ccccc2)NC(=O)[C@H](CCCNC(=N)N)NC(=O)[C@H](C)N(C)C(=O)C[C@@H](C(=O)N2CCCC2)NC(=O)[C@@H]2CCCN2C(=O)[C@H](Cc2ccc(O)cc2)NC1=O) [PP14] : 1.6
